- system tested: T1, cynomolgus monkey 5T4 antigen (cynomolgus monkey, UniProt Q4R8Y9 35-420)
- T1 construct: whole, on cells; also called cyno 5T4
- T1 sequence (looked up): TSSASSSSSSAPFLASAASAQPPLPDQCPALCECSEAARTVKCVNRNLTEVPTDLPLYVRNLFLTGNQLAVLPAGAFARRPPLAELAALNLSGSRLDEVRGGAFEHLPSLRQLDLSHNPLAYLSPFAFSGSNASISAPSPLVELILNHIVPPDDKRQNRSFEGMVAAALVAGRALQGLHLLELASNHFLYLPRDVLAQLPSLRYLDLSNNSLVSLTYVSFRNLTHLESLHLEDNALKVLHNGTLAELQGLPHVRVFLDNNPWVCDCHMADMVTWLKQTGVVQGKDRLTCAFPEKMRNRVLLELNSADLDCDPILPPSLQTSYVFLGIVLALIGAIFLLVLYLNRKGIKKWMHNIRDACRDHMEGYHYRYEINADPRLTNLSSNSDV
- procedure text: flow cytometry, CHOZN cells expressing cyno 5T4
Listed here: items and their measured EC50.
Express your answer in µg/mL, writing the number without its unit.

// solved cases for EC50 follow
chimeric anti-5T4 monoclonal antibody 841 (antibody, human IgG1, V domains shown) VH: QSLEESGGRLVTPGTPLTLTCKASGFSLSTYWMSWVRQAPGKGLEWIGIMLSYGNTVYANWAKGRFTISKTSSTTVDLKITSPTTEDTATYFCARGLYGGYPNYGVYDLWGQGTLVTVSS VL: DVVMTQTPASVEAAVGGTVTIKCQASQSISSYLSWYQQKPGQPPKLLIYAASNLASGVSSRFKGSRSGTEYTLTISDLESADAATYYCQCTDYGSNYVGAFGGGTEVVVK :: 0.14
chimeric anti-5T4 monoclonal antibody 833 (antibody, IgG1, V domains shown, also called clone 833) VH: QSLEESGGGLVTPGGSLTLTCTGSGIDLSHYVVGWVRQAPGKGLEWIGIIYGSGRTYYANWAKGRFTISKTSTTVDLRIARPTAEDTATYFCARDASVSVYYWGYFDLWGQGTLVTVSS VL: AYDMTQTPVSVEVAVGGTVTIKCQASQSIGSELAWYQQKPGQPPKLLIYRASTLESGVPSRFSGSGSGTEFTLTISGVESADAATYYCQQGYTYSEIDNAFGGGTEVVVK :: 0.08

Ask | Retrieve EC50 measured for chimeric anti-5T4 monoclonal antibody 868 (antibody, human IgG1, V domains shown) VH: QSVEESGGRLVTPGTPLTLTCTASGFSLSDYTMGWVRQAPGKGLEWIGIINGYGSTYYANWAKGRFAISKTSTTVDLKITSPATEDTATYFCARGDTGRTYDMHFNLWGQGTLVTVSS VL: AYDMTQTPASVSAAVGGTVTIKCQASESIRSWLAWYQQKPGQPPKLLIYSASTLASGVSSRFKGSGSGTQFTLTIGDLESADAATYYCQQGYTSSNLDNAFGGGTEVLVK and print it.
Reply | 0.17
